Cited source: patent US20250163038A1

# System: Jurkat (clone E6-1) cells with NFAT luciferase reporter
# method-summary: Jurkat reporter assay (NFAT Luciferase)
# Assay type: cell-based
# condition-label: Homo sapiens; Jurkat NFAT luciferase reporter cells, anti-CD3 stimulation, 6 hr; read-out: Jurkat NFAT EC50
experimental-readout: EC50

Worked examples follow.
Cn1cnnc1-c1cc(F)ccc1-c1cccc(-c2nc3cc(CNCC4(C)CCC4)cc(C(F)(F)F)c3o2)c1 [HK-2] ... < 200 nM
Cn1cnnc1-c1cc(F)ccc1-c1cccc(-c2nc3cc(CNC[C@@H](O)C(F)(F)F)cc(C(F)(F)F)c3o2)c1 [CR-3] ... < 200 nM
Cn1cnnc1-c1cc(F)ccc1-c1cccc(-c2nc3cc(CO)cc(C(F)(F)F)c3o2)c1 [Example X-2] ... 1000 to 10000 nM
CO[C@H](CO)c1cc(C(F)(F)F)c2oc(-c3cccc(-c4ccc(F)cc4-c4nncn4C)c3)nc2c1 (single isomer, unassigned) [EG-2] ... 1000 to 10000 nM
COCCNCc1cc2nc(-c3cccc(-c4ccc(F)cc4-c4nncn4C)c3)oc2cc1F [IR-1] ... 200 to 1000 nM
Cn1cnnc1-c1cc(C#N)ccc1-c1cccc(-c2nc3cc(CO)cc(C(F)(F)F)c3o2)c1 [CL-2] ... 1000 to 10000 nM

Fill blank: measured EC50 of the compound C[C@H]1CCCN(Cc2ccc3oc(-c4cc(-c5ccc(C#N)cc5-c5nncn5C)cc(C5CC5)n4)nc3c2)C1 [AGG-2] is ____.
200 to 1000 nM
